# test.summary: chemical genetic growth profiling, strain panel (AID 1159580);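 further: tested at 20 µM; growth read once vehicle control cultures reached saturation at 30 °C; lower values mean less growth of the strain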
# experimental.parameters: S. cerevisiae deletion strains, growth OD, locus YDR195W, strain ref2
The campaign covered roughly 5,500 compounds. About 2,000 (36%) were called active. About 18% were inconclusive and are not listed. No stated cut-off is given here; in the data, active means normalized growth mostly below about 0.91 (no sharp cut-off); inconclusive means no clear call, values can overlap the other calls; inactive means mostly above about 0.92. This is one part of the list.
Classes used: active, inactive

compound	category.label
CS(=O)(=O)OCCCCOS(C)(=O)=O	inactive
O=C(NC(=O)c1c(F)cccc1F)Nc1cc(Cl)c(OC(F)(F)C(F)C(F)(F)F)cc1Cl (centres undefined)	inactive
Oc1ccc(/C=C/c2cc(O)cc(O)c2)cc1	active
O=C1OCCN1/N=C\c1ccc([N+](=O)[O-])o1	inactive
O=C(O)CNCP(=O)(O)O	inactive
COc1ccc2c(c1O)-c1c(OC)c(OC)cc3c1[C@H](C2)N(C)CC3	inactive
COS(C)(=O)=O	inactive
CC[C@]1(O)CC2CN(CCc3c([nH]c4ccccc34)[C@@](C(=O)OC)(c3cc4c(cc3OC)N(C=O)[C@H]3[C@@](O)(C(=O)OC)[C@H](OC(C)=O)[C@]5(CC)C=CCN6CC[C@]43[C@@H]65)C2)C1 (some centres undefined)	inactive
O=C(/C=C/c1ccc(O)c(O)c1)O[C@@H]1C[C@](O)(C(=O)O)C[C@@H](O)[C@H]1O	inactive
O=C1CN(/N=C\c2ccc([N+](=O)[O-])o2)C(=O)N1	inactive
CC1=C(/C=C/C(C)=C/C=C/C(C)=C\C(=O)O)C(C)(C)CCC1	inactive
CCCN(CCC)C(=O)C(CCC(=O)O)NC(=O)c1ccccc1 (centres undefined)	inactive
CC(=O)O[C@H]1CC[C@@]2(C)C(=CCC3C2CC[C@]2(C)C(=O)CCC32)C1 (some centres undefined)	active
CC[C@]12CCCN3CCc4c(n(c5ccccc45)C(=O)C1)[C@@H]32	inactive
